Biological target: T1, Clostridium difficile toxin A (Clostridioides difficile …, UniProt P16154)
T1 construct: also called TcdA
Assay: SPR
Conditions: both partners purified
measured_parameter: koff (s⁻¹)
Numeric answer only, unit s⁻¹ assumed.

As a guide, the following entries are already answered.
binder: A26.8 VHH E110Q (VHH, source: E. coli TG1, periplasmic extract, purified (IMAC, SEC)) VHH: QVKLEESGGGLVQAGGSLRLSCAASERTFSRYPVAWFRQAPGAEREFVAVISSTGTSTYYADSVKGRFTISRDNAKVTVYLQMNNLKREDTAVYFCAVNSQRTRLQDPNQYDYWGQGTQVTVSS
readout_value: 0.07

binder: A26.8 VHH T56R, Q101K, T103K (VHH, source: E. coli TG1, periplasmic extract, purified (IMAC, SEC)) VHH: QVKLEESGGGLVQAGGSLRLSCAASERTFSRYPVAWFRQAPGAEREFVAVISSTGRSTYYADSVKGRFTISRDNAKVTVYLQMNNLKREDTAVYFCAVNSKRKRLQDPNEYDYWGQGTQVTVSS
readout_value: 0.047

binder: A26.8 VHH Q101K, T103M (VHH, source: E. coli TG1, periplasmic extract, purified (IMAC, SEC)) VHH: QVKLEESGGGLVQAGGSLRLSCAASERTFSRYPVAWFRQAPGAEREFVAVISSTGTSTYYADSVKGRFTISRDNAKVTVYLQMNNLKREDTAVYFCAVNSKRMRLQDPNEYDYWGQGTQVTVSS
readout_value: 0.027

So what does the record say about koff for A26.8 VHH T103W (VHH, source: E. coli TG1, periplasmic extract, purified (IMAC, SEC)) VHH: QVKLEESGGGLVQAGGSLRLSCAASERTFSRYPVAWFRQAPGAEREFVAVISSTGTSTYYADSVKGRFTISRDNAKVTVYLQMNNLKREDTAVYFCAVNSQRWRLQDPNEYDYWGQGTQVTVSS ?
0.036
